Data credit: patent US5248677A

Some compounds, each annotated with its measured IC50.
# Tested on: dopamine uptake
# measurement description: DA (dopamine) uptake inhibition, synaptosomal preparation (striatum)
# Assay type: biochemical, rat (Male Sprague-Dawley)
# recorded conditions: rat striatum synaptosomes, 0.1 μM tritiated amine, 37° C., 4 minutes
Where a name gives a salt, the structure may show the parent alone.
measured property: IC50 (nM)

compound: CCN1CC2c3ccc(OC)cc3CCC2C1Cc1ccccc1 (stereo not shown) [Example 3, methanesulfonate salt]
unit text: nM
value reported: 225

compound: CN1CC2c3ccccc3CCC2C1Cc1ccccc1 (stereo not shown) [Example 9]
unit text: nM
value reported: 540

compound: CN1CC2c3ccccc3CCC2C1Cc1cccc(Cl)c1 (single isomer, unassigned) [Example 47, hydrochloride]
unit text: nM
value reported: 225

compound: COc1ccc2c(c1)CCC1CC(Cc3ccccc3)N(C)CC21 (stereo not shown) [Example 72, hydrochloride]
unit text: nM
value reported: 1010

###

# Tested on: dopamine uptake
# measurement description: DA (dopamine) uptake inhibition, synaptosomal preparation (striatum)
# Type: biochemical, rat (Male Sprague-Dawley)
# recorded conditions: rat striatum synaptosomes, 0.1 μM tritiated amine, 37° C., 4 minutes
Structures can show the parent of a compound that is named as a salt.
measured property: IC50 (µM)

molecule: CCN1CC2c3cccc(OC)c3CCC2C1Cc1cccc(F)c1 (stereo not drawn) [Example 25, hydrochloride]
value reported: 0.197
//
molecule: Fc1cccc(CC2NCC3c4ccccc4CCC23)c1 (stereo not drawn) [Example 15, hydrochloride]
value reported: 7.7
//
molecule: COc1cccc2c1CCC1C2CN(C)C1Cc1cccc(F)c1 (stereo not drawn) [Example 24, hydrochloride]
value reported: 0.17
//
molecule: CN1CC2c3ccccc3CCC2C1Cc1ccc(F)cc1 (stereo not drawn) [Example 18]
value reported: 4.82
//
molecule: COc1ccc2c(c1)CCC1C2CN(C)C1Cc1ccccc1 (stereo not drawn) [Example 2]
value reported: 0.182
//
molecule: Cc1cccc(CC2NCC3c4ccccc4CCC23)c1 (stereo not drawn) [Example 11, hydrochloride]
value reported: 5.14
//
molecule: COc1ccc2c(c1)CCC1C(Cc3cccc(F)c3)NCC21 (stereo not drawn) [Example 26, hydrochloride]
value reported: 9.04
//
molecule: CN1CC2c3ccccc3CCC2C1Cc1ccccc1 (stereo not drawn) [Example 10]
value reported: 6.72
//
molecule: COc1ccc2c(c1)CC[C@H]1[C@@H]2CN(C)[C@@H]1Cc1ccccc1 (relative stereo) [Example 8]
value reported: 4.7

###

# System: dopamine uptake
# measurement description: DA (dopamine) uptake inhibition, synaptosomal preparation (striatum)
# Type: biochemical, rat (Male Sprague-Dawley)
# recorded conditions: rat striatum synaptosomes, 0.1 μM tritiated amine, 37° C., 4 minutes
# Protocol: For the purpose of identifying compounds as biogenic amine uptake inhibitors capable of interacting with the uptake carrier, ligand-carrier binding assays were carried out as an initial sceen. Male Sprague-Dawley derived rats, weighing about 180-250 g each (purchased from Sasco Animal Laboratories, Oregon, Wis.) were sacrificed by decapitation. […]
pIC50: −log10 of the molar value. Where a name gives a salt, the structure may show the parent alone.
Label not met if pIC50 falls below 6; label met in every other case.

compound: COc1cccc2c1CCC1C2CN(C)C1Cc1ccccc1 (stereo not drawn)
classification: met

compound: CCN1CC2c3ccccc3CCC2C1Cc1cccc(C)c1 (stereo not drawn) [Example 13, hydrochloride]
classification: met

compound: CN1CC2c3ccccc3CCC2CCC1Cc1ccccc1 (single isomer, unassigned; (-)) [Example 78, hydrochloride]
classification: met

compound: COc1ccc2c(c1)CCC1C2CN(C)C1Cc1ccccc1 (stereo not drawn) [Example 7]
classification: not met

compound: CN1C[C@@H]2c3ccccc3CC[C@@H]2CCC1Cc1ccccc1 (relative stereo) [Example 77, hydrochloride]
classification: not met

compound: COc1ccc2c(c1)CCC1C(Cc3ccccc3)NCC21 (stereo not drawn)
classification: not met

compound: Fc1ccc(CC2NCC3c4ccccc4CCC23)cc1 (stereo not drawn)
classification: not met
